# CC50 measurements, system: SF-539
Your answer is read as µM, so omit the unit and give the number.

Complete the entry with CC50 for C=C1C(=O)O[C@H]2[C@H]1CC/C(COC(=O)CCC(=O)NCCCCCCCCCNC(=O)CCC(=O)OC/C1=C/CC[C@@]3(C)O[C@H]3[C@H]3OC(=O)C(=C)[C@@H]3CC1)=C\CC[C@@]1(C)O[C@@H]21
9.95

Complete the entry with CC50 for C=C1C(=O)O[C@H]2[C@H]1CC/C(COC(=O)CCC(=O)NCCCCCCCCNC(=O)CCC(=O)OC/C1=C/CC[C@@]3(C)O[C@H]3[C@H]3OC(=O)C(=C)[C@@H]3CC1)=C\CC[C@@]1(C)O[C@@H]21
20.9

Values compiled from patent US10118935B2.
